- assay-name: in vitro
- Format: in vitro ADME
- run-parameters: human plasma containing 5 mM MgCl2, 37° C., LC-MS/MS; read-out: T1/2 (h) Plasma (converted)
Exercise: for every item that follows, state its recorded half-life at 100 µM.
# unit: h | format: bare number

Identify measured half-life at 100 µM associated with C=C1[C@H](CO[P@@](=O)(N[C@@H](C)C(=O)OC)Oc2ccc(Cl)cc2)[C@@H](O)C[C@@H]1n1cnc2c(=O)[nH]c(N)nc21 [II-3]
7.5

Identify measured half-life at 100 µM associated with C=C1[C@H](CO[P@@](=O)(N[C@@H](C)C(=O)OC)Oc2ccc(OC)cc2)[C@@H](O)C[C@@H]1n1cnc2c(=O)[nH]c(N)nc21 [II-5]
4.9

Identify measured half-life at 100 µM associated with C=C1[C@H](CO[P@@](=O)(N[C@@H](C)C(=O)OC)Oc2ccc(Br)cc2)[C@@H](O)C[C@@H]1n1cnc2c(=O)[nH]c(N)nc21 [II-4]
6.2

Identify measured half-life at 100 µM associated with C=C1[C@H](CO[P@@](=O)(N[C@@H](C)C(=O)OC)Oc2ccc(C)cc2)[C@@H](O)C[C@@H]1n1cnc2c(=O)[nH]c(N)nc21 [II-6]
10.8

Identify measured half-life at 100 µM associated with C=C1[C@H](CO[P@@](=O)(N[C@@H](C)C(=O)OC)Oc2ccc(F)cc2)[C@@H](O)C[C@@H]1n1cnc2c(=O)[nH]c(N)nc21 [II-2]
10.6

Identify measured half-life at 100 µM associated with C=C1[C@H](CO[P@@](=O)(N[C@@H](C)C(=O)OC)Oc2ccccc2)[C@@H](O)C[C@@H]1n1cnc2c(=O)[nH]c(N)nc21 [II-1]
15.3
